target: Leukotriene B4 receptor 1 (Homo sapiens); test: Binding affinity at leukotriene B4 receptor on intact human PMNs by displacement of [3H]LTB4.
Sequence (Q15722 whole entry): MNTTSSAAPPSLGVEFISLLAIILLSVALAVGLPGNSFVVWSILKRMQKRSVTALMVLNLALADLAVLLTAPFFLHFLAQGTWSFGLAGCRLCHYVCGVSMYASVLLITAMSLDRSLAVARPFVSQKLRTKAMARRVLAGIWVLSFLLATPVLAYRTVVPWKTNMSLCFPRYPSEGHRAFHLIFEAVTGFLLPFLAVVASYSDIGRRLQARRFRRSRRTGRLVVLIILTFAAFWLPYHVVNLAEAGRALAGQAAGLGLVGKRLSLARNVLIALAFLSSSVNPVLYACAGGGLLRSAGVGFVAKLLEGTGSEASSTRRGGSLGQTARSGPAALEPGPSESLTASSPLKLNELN
EXPERIMENTAL READOUT: Ki (nM)

Sample records with Ki:
# MOLECULE, UNIT ANNOTATION, Ki
data = [
    ("COc1ccc(CCCCCCCCOc2ccc(CSCc3ccc(C(=O)O)cc3)nc2/C=C/C(=O)O)cc1", "nM", 5.7),
    ("O=C(O)/C=C/c1nc(CSCc2cccc(C(=O)O)c2)ccc1OCCCCc1ccccc1", "nM", 4.8),
    ("COc1ccc(CCCCCCCCOc2ccc(CS(=O)(=O)Cc3cccc(C(=O)O)c3)nc2/C=C/C(=O)O)cc1", "nM", 53),
    ("COc1ccc(CCCCOc2ccc(CSCc3cccc(C(=O)O)c3)nc2CCC(=O)O)cc1", "nM", 28),
    ("COc1ccc(CCCCCCCCOc2ccc(CSCc3cccc(C(=O)O)c3)nc2CCC(=O)O)cc1", "nM", 8),
]

I: COc1ccc(CCCCOc2ccc(CSCc3cccc(C(=O)O)c3)nc2/C=C/C(=O)O)cc1
II: COc1ccc(CCCCCCCCOc2ccc(C[S+]([O-])Cc3cccc(C(=O)O)c3)nc2/C=C/C(=O)O)cc1 (stereo not drawn)
III: COc1ccc(CCCCCCCCOc2ccc(C[S+]([O-])Cc3ccc(C(=O)O)cc3)nc2/C=C/C(=O)O)cc1 (stereo not drawn)
Query string: hey, can you rank those molecules up there by Ki? biggest number first please Give me the labels in the order the question wants.
Result string: II, III, I

Values were extracted from ChEMBL document CHEMBL1127355.
